molecular target: α-glucosidase (AG) (Saccharomyces cerevisiae, UniProt P53341)
Sequence (P53341 whole entry): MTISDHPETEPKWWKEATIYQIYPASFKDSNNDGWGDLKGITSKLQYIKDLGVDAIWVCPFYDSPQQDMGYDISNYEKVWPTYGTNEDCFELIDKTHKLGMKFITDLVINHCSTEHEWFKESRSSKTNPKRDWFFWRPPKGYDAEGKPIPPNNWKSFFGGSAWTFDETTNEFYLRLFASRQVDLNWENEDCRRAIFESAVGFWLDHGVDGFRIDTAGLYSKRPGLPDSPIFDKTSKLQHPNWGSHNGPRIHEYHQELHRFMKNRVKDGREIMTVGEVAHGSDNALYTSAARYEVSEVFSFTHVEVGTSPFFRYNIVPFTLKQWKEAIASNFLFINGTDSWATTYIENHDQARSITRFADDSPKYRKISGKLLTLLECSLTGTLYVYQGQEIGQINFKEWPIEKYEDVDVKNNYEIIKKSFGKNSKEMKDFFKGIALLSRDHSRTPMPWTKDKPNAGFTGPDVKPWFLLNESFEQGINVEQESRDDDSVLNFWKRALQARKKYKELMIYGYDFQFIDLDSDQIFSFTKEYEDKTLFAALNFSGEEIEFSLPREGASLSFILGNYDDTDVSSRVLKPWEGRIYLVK
pIC50: −log10 of the molar value.
// reported pIC50 per item
quantity.measured: pIC50

[[record]]
compound = "OC[C@H]1O[C@@H](OCCc2ccc(O)cc2)[C@H](O)[C@@H](O)[C@@H]1O [Compound 4, salidroside]"
quantity_measured = "pIC50"
experimental_result = 2.86

[[record]]
compound = "O=C1c2cc3ccoc3cc2O[C@@H]2COc3cc4c(cc3[C@H]12)OCO4 [Compound 14, dolineon]"
quantity_measured = "pIC50"
experimental_result = 3.18

[[record]]
compound = "CC1(C)Oc2cc3c(cc2CC1O)[C@@H]1Oc2cc(O)ccc2[C@@H]1CO3 (stereo partly shown) [Compound 23, rautandiol A]"
quantity_measured = "pIC50"
experimental_result = 3.55

[[record]]
compound = "Oc1cc(O)c2c(c1)O[C@H](c1ccc(O)c(O)c1)[C@@H](O)C2 [Compound 3, (+)-catechin]"
quantity_measured = "pIC50"
experimental_result = 3.44


====

tested on: T. brucei rhodesiense (STIB-900); assay: Anti-trypanosomal assay (Alamar Blue, 72 h); assay type: cell-based, Trypanosoma brucei rhodesiense; conditions: Trypanosoma brucei, RHODESIENSE, 72 h, pure compounds and control; 72 h; read-out: T. br (IC50 μM)
quantity.measured: IC50 (µM)

[[record]]
compound = "N=C(N)c1ccc(OCCCCCOc2ccc(C(=N)N)cc2)cc1 [Pentamidine, reference compound]"
quantity_measured = "IC50"
experimental_result = 0.007

[[record]]
compound = "O=c1c(O)c(-c2ccc(O)cc2)oc2cc(O)cc(O)c12 [Compound 1, kempherol]"
quantity_measured = "IC50"
experimental_result = 10.3

[[record]]
compound = "CC(C)(O)C1Cc2cc3c(cc2O1)OC[C@H]1c2ccc(O)cc2O[C@@H]31 (stereo partly shown) [Compound 24, rautandiol B]"
quantity_measured = "IC50"
experimental_result = 23.5

[[record]]
compound = "CC(C)=CCc1cc2c(cc1O)OC[C@@H]1c3cc4c(cc3O[C@H]21)OCO4 [Compound 15]"
quantity_measured = "IC50"
experimental_result = 4.87


====

system: T. brucei rhodesiense (STIB-900); experiment: Anti-trypanosomal assay (Alamar Blue, 72 h); type: cell-based, Trypanosoma brucei rhodesiense; conditions: pure compounds and control; 72 h; read-out: T. br (IC50 μM)
Parameter IC50: see the listing below.
quantity.measured: IC50 (µM)

[[record]]
smiles_notation = "CC(C)=CCc1cc2c(cc1O)OC[C@H]1c3cc4c(cc3O[C@@H]21)OCO4"
unit_of_measurement = "µM"
experimental_result = 4.87

[[record]]
smiles_notation = "O=c1c(O)c(-c2ccc(O)c(O)c2)oc2cc(O)cc(O)c12"
unit_of_measurement = "µM"
experimental_result = 8.91

[[record]]
smiles_notation = "O=c1c(O)c(-c2ccc(O)cc2)oc2cc(O)cc(O)c12"
unit_of_measurement = "µM"
experimental_result = 8.74


====

test system: T. brucei rhodesiense (STIB-900); assay: Anti-trypanosomal assay (Alamar Blue, 72 h); assay type: cell-based, Trypanosoma brucei rhodesiense; settings: Trypanosoma brucei, RHODESIENSE, 72 h, pure compounds and control; 72 h; read-out: T. br (IC50 μM)
IC50 for assorted compounds
quantity.measured: IC50 (µM)

[[record]]
compound = "COc1cc2c(cc1C1COc3cc4occc4cc3C1=O)OCO2 (stereo not shown)"
operator = "="
experimental_result = 17

[[record]]
compound = "O=c1c(O)c(-c2ccc(O)c(O)c2)oc2cc(O)cc(O)c12"
operator = "="
experimental_result = 8.44

[[record]]
compound = "Oc1cc(O)c2c(c1)O[C@H](c1ccc(O)c(O)c1)[C@@H](O)C2 [Compound 3, (+)-catechin]"
operator = ">"
experimental_result = 100

[[record]]
compound = "OC[C@H]1O[C@@H](OCCc2ccc(O)cc2)[C@H](O)[C@@H](O)[C@@H]1O [Compound 4, salidroside]"
operator = ">"
experimental_result = 100


Value source: paper PMC8438977
